Recorded EC50 by entry
target: ΔF508-CFTR (Homo sapiens, UniProt P13569, DEL508-508); assay: Membrane potential optical assay (FRET/VIPR), identification of correction compounds
Sequence (P13569 with tags, fused parts or gaps DEL508-508): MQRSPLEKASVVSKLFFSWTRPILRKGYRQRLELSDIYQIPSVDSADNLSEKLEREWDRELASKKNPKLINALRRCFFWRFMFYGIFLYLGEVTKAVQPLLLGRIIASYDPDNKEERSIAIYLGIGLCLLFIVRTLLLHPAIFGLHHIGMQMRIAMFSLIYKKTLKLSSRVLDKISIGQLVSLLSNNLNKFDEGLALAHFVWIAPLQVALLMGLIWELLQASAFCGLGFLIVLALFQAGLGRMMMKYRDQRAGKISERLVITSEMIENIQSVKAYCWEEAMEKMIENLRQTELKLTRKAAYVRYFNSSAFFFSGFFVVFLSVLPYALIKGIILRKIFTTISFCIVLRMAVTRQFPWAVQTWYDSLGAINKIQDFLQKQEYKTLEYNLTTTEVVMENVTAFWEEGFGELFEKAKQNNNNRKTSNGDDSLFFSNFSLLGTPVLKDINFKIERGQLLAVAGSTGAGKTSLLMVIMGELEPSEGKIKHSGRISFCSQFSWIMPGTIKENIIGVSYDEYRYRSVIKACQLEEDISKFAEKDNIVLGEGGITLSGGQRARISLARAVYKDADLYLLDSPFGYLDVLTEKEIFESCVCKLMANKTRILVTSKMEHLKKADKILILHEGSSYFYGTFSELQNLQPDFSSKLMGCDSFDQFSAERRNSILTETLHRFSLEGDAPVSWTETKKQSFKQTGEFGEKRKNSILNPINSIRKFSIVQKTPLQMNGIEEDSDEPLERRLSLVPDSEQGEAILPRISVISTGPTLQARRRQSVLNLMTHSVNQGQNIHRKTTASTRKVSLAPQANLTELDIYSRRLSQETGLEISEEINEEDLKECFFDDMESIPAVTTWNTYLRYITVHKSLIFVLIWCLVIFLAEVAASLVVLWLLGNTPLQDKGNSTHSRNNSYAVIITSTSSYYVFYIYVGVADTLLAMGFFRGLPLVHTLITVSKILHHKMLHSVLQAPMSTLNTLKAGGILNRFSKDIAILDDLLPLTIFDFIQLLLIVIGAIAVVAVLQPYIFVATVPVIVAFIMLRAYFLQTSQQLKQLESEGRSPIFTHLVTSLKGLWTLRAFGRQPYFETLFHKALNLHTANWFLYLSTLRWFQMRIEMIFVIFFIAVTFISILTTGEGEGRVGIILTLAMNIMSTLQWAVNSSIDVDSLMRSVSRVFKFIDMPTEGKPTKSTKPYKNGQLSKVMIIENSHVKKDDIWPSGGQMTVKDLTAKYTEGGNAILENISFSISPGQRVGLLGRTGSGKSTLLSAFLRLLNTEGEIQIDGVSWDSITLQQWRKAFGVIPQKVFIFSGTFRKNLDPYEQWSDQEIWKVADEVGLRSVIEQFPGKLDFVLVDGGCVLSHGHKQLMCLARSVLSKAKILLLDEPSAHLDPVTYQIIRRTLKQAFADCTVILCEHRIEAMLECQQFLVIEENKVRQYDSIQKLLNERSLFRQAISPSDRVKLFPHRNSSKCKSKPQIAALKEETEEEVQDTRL

# compound, assayed target, observed result
measured = [
    ("C[C@@H](c1nc(N2CCCCC2)c2ccccc2n1)N1CCN(S(=O)(=O)c2ccc(Cl)cc2)CC1 [compound 380]", "ΔF508-CFTR (Homo sapiens, UniProt P13569, DEL508-508)", "< 10 µM"),
    ("CC(c1nc2ccccc2c(=O)n1C)N(CCCNS(=O)(=O)c1ccc(Br)cc1)S(=O)(=O)c1ccc(Br)cc1 (stereo not shown) [compound 207]", "ΔF508-CFTR (Homo sapiens, UniProt P13569, DEL508-508)", "< 10 µM"),
    ("COc1ccc(S(=O)(=O)N2CCN(C(C)c3ncc(-c4ccccc4)c(N4CCCCC4)n3)CC2)cc1 (stereo not shown) [compound 376]", "ΔF508-CFTR (Homo sapiens, UniProt P13569, DEL508-508)", "< 10 µM"),
]

Given the entry CSc1ccc(S(=O)(=O)N2CCN(C(C)c3nc4ccccc4c(=O)n3C)CC2)cc1 (stereo not shown) [compound 350] , report its measured EC50. 25 to 60 µM

Query (compound): COc1ccc(S(=O)(=O)N(C)CCN(C(C)c2nc3ccccc3c(=O)n2C)S(=O)(=O)c2ccc(OC)cc2)cc1 (stereo not shown) [compound 200] ; field requested: EC50 25 to 60 µM

EC50 for CCCC(c1nc2ccccc2c(=O)n1CC)N1CCN(S(=O)(=O)c2ccc(OC)cc2)CC1 (stereo not shown) [compound 341] ? < 10 µM

Entry Cc1ccc(S(=O)(=O)N2CCN(C(C)c3nc4cc(Cl)ccc4c(=O)n3C)CC2)cc1 (stereo not shown) [compound 92] : reported EC50 = ? < 10 µM

* * *

Entries and their EC50 values follow.
biological target: ΔF508-CFTR (Homo sapiens, UniProt P13569, DEL508-508); experiment: Membrane potential optical assay (FRET/VIPR), identification of correction compounds

Fill in: EC50 of CCNc1nc(C(C)N2CCN(S(=O)(=O)c3ccc(Cl)cc3)CC2)nc2ccccc12 (stereo not shown) is ___ 10 to 25 µM

Recorded EC50 of CCCn1c(C(C)N2CCN(C(=O)c3ccc4ccccc4c3)CC2)nc2ccccc2c1=O (stereo not shown) , please. 25 to 60 µM

What does the data say about its EC50? Entry: CCCC(c1nc2ccccc2c(=O)[nH]1)N1CCN(S(=O)(=O)c2ccc(OC)cc2)CC1 (stereo not shown) 10 to 25 µM

What value of EC50 has been reported for the following compound? CC(c1nc2ccc(S(C)(=O)=O)cc2c(=O)n1C)N1CCN(S(=O)(=O)c2ccc(Br)cc2)CC1 (stereo not shown) 10 to 25 µM

* * *

molecular target: ΔF508-CFTR (Homo sapiens, UniProt P13569, DEL508-508); construct: expressed in transfected cells; experiment: Membrane potential optical assay (FRET/VIPR), identification of correction compounds; assay type: cell-based; conditions: relative efficacy
Reported Emax is given for each of the following molecules.

# molecule, Emax
records = [
    ("CC(c1nc2ccccc2c(=O)n1C)N1CCCN(S(=O)(=O)c2ccc(Br)cc2)CC1 (stereo not shown) [compound 172]", "25 to 100%"),
    ("CC(c1nc2ccccc2c(=O)n1C)N1CCN(S(=O)(=O)c2ccc(Oc3ccccc3)nc2)CC1 (stereo not shown) [compound 267]", "< 25%"),
    ("COc1ccc(S(=O)(=O)N2CCN(C(C)c3nc(OCCN4CCCC4)c4ccccc4n3)CC2)cc1 (stereo not shown) [compound 299]", "25 to 100%"),
]

API: value(readout= Emax, system= ΔF508-CFTR (Homo sapiens, UniProt P13569, DEL508-508), query= COc1ccc(S(=O)(=O)N2CCN(C(C)c3nc(N(C)C)c4ccccc4n3)CC2)cc1 (stereo not shown) [compound 193] ) 25 to 100%

Missing value: Emax, ΔF508-CFTR (Homo sapiens, UniProt P13569, DEL508-508), entry CC(c1nc2ccccc2c(=O)n1C)N1CCC(N)C1 (stereo not shown) [compound 178] . Fill in? < 25%

Please state recorded Emax (tested on ΔF508-CFTR (Homo sapiens, UniProt P13569, DEL508-508)) of COc1ccc(S(=O)(=O)N2CCC(C(C)c3nc(OC4CCCCC4)c4ccccc4n3)CC2)cc1 (stereo not shown) [compound 404] > 100%

Sourced from patent US8642609B2
